Read-out: CYP4A11 (gene 1579)
protocol-description: LTEA_HepaRG_CYP4A11: Life Technologies and Expression Analysis (LTEA) Assay for CYP4A11 using HepaRG (AID 2283486)
assay-conditions: mRNA level, 48 h; actives raise or lower the signal
Activity calls are given as the source filed them. The calls were made as follows: active = hit-call score of the fitted dose curve at least 0.9, where 1 is the maximum; inactive = score below 0.9.
Please answer using one outcome listed in t (active), f (inactive)

molecule=CCSC(=O)N1CCCCCC1 group=f

Dear colleague, could you share the recorded outcome for CNC(=O)Oc1cccc2ccccc12 when you have a moment?
f

Dear colleague, could you share the recorded outcome for COC(=O)NS(=O)(=O)c1ccc(N)cc1 when you have a moment?
f

====

Read-out: flavin-containing dimethylaniline monooxygenases 3 (FMO3), FMO3 (gene 2328)
protocol-description: LTEA_HepaRG_FMO3: Life Technologies and Expression Analysis (LTEA) Assay for flavin-containing dimethylaniline monooxygenases 3 (FMO3) using HepaRG (AID 2283453)
assay-conditions: mRNA level, 48 h; actives raise or lower the signal
Calls of active or inactive are those of the source. The calls were made as follows: active = hit-call score of the fitted dose curve at least 0.9, where 1 is the maximum; inactive = score below 0.9.
Please answer using one outcome listed in active, inactive

See these solved cases before continuing.
molecule=C=CCOC(=O)C(C)(C)OC(=O)c1cc(-n2c(=O)cc(C(F)(F)F)n(C)c2=O)ccc1Cl group=inactive
molecule=Cc1c(COC(=O)[C@@H]2[C@H](/C=C(\Cl)C(F)(F)F)C2(C)C)cccc1-c1ccccc1 group=inactive
molecule=COC(=O)c1c(C(F)F)nc(C(F)(F)F)c(C2=NCCS2)c1CC(C)C group=inactive
molecule="CC(C)C1(C)N=C(c2ncccc2C(=O)O)NC1=O (configuration not stated)" group=inactive
molecule=CCNC(=O)NC(=O)C(C#N)=NOC group=inactive

Dear colleague, could you share the recorded outcome for Cc1cnc(C2=NC(C)(C(C)C)C(=O)N2)c(C(=O)O)c1 (configuration not stated) when you have a moment?
inactive

Dear colleague, could you share the recorded outcome for COCC(C)N(C(=O)CCl)c1c(C)csc1C (configuration not stated) when you have a moment?
inactive

Dear colleague, could you share the recorded outcome for CCC(C)n1c(=O)[nH]c(C)c(Br)c1=O (configuration not stated) when you have a moment?
active

Dear colleague, could you share the recorded outcome for N#CN=C1SCCN1Cc1ccc(Cl)nc1 when you have a moment?
inactive

Dear colleague, could you share the recorded outcome for CC1(C)CON(Cc2ccccc2Cl)C1=O when you have a moment?
inactive

Dear colleague, could you share the recorded outcome for CC(C)=CC1C(C(=O)OCc2coc(Cc3ccccc3)c2)C1(C)C (configuration not stated) when you have a moment?
inactive

Dear colleague, could you share the recorded outcome for CCCCC(C#N)(Cn1cncn1)c1ccc(Cl)cc1 (configuration not stated) when you have a moment?
inactive

====

protocol-description: ATG_NRF2_ARE_CIS: Attagene CIS-FACTORIAL HepG2 Assay for human Nuclear Factor Erythroid 2 Related Factor 2 (NFR2) response to Antioxidant Response Elements (ARE) (AID 2282992)
assay-conditions: HepG2 Attagene ARE/NRF2 reporter, transcription factor activity; actives raise or lower the signal
Procedure: ATG_CIS is a cell-based, multiplexed-readout assay that uses HepG2, a human liver cell line, with measurements taken at 24 hours after chemical dosing in a 24-well plate.ATG_NRF2_ARE_CIS is one of 52 assay component(s) measured or calculated from the ATG_CIS assay. […] This assay endpoint, ATG_NRF2_ARE_CIS, was analyzed with bidirectional fitting relative to DMSO as the negative control and baseline of activity. […]
Calls of active or inactive are those of the source. The calls were made as follows: active = hit-call score of the fitted dose curve at least 0.9, where 1 is the maximum; inactive = score below 0.9.
Please answer using one outcome listed in active, inactive

Dear colleague, could you share the recorded outcome for CCC(C)n1c(=O)[nH]c(C)c(Br)c1=O (centres undefined) when you have a moment?
inactive

# credit: PubChem BioAssay (EPA / NIEHS)
